Measured melting point, listed per entry for reference.
Where a name gives a salt, the structure may show the parent alone.
experimental readout: melting point

- molecule: "CC(=O)c1ccc(-c2ccc(N3C[C@H](Cn4ccnn4)OC3=O)cc2F)cn1 [Ref Example 1]"
  experimental readout: "melting point"
  result: "> 210 °C (dec.)"
- molecule: "O=C(Cn1ccnc1)c1ccc(-c2ccc(N3C[C@H](Cn4ccnn4)OC3=O)cc2F)cn1 (as salt: hydrochloride) [Example 1]"
  experimental readout: "melting point"
  result: "> 230 °C (dec.)"
- molecule: "O=C1O[C@@H](Cn2ccnn2)CN1c1ccc(-c2ccc(/C=N/O)nc2)c(F)c1 [Ref Example 3]"
  experimental readout: "melting point"
  result: "> 230 °C (dec.)"
- molecule: "O=C(c1ccc(-c2ccc(N3C[C@H](Cn4ccnn4)OC3=O)cc2F)cn1)C1CCNCC1 (as salt: hydrochloride) [Example 8]"
  experimental readout: "melting point"
  result: "> 275 °C (dec.)"
- molecule: "COCc1nccn1CC(=O)c1ccc(-c2ccc(N3C[C@H](Cn4ccnn4)OC3=O)cc2F)cn1 [Example 15]"
  experimental readout: "melting point"
  result: "78 to 80 °C"
- molecule: "O=C(CC1CCNCC1)c1ccc(-c2ccc(N3C[C@H](Cn4ccnn4)OC3=O)cc2F)cn1 (as salt: hydrochloride) [Example 6]"
  experimental readout: "melting point"
  result: "> 196 °C (dec.)"
- molecule: "O=C(c1ccc(-c2ccc(N3C[C@H](Cn4ccnn4)OC3=O)cc2F)cn1)C1CNC1 (as salt: hydrochloride) [Example 9]"
  experimental readout: "melting point"
  result: "> 90 °C (dec.)"
- molecule: "CCc1nccn1CC(=O)c1ccc(-c2ccc(N3C[C@H](Cn4ccnn4)OC3=O)cc2F)cn1 [Example 14]"
  experimental readout: "melting point"
  result: "77 to 79 °C"
- molecule: "CC(C)c1nccn1CC(=O)c1ccc(-c2ccc(N3C[C@H](Cn4ccnn4)OC3=O)cc2F)cn1 [Example 12]"
  experimental readout: "melting point"
  result: "82 to 83 °C"
- molecule: "CC(C)(C)O/N=C/c1ccc(-c2ccc(N3C[C@H](Cn4ccnn4)OC3=O)cc2F)cn1 [Example 3]"
  experimental readout: "melting point"
  result: "192 °C"
- molecule: "O=Cc1ccc(-c2ccc(N3C[C@H](Cn4ccnn4)OC3=O)cc2F)cn1 [Ref Example 2]"
  experimental readout: "melting point"
  result: "> 180 °C (dec.)"
- molecule: "Cc1cn(CC(=O)c2ccc(-c3ccc(N4C[C@H](Cn5ccnn5)OC4=O)cc3F)cn2)c(C)n1 [Example 13]"
  experimental readout: "melting point"
  result: "78 °C"
- molecule: "CCCc1nccn1CC(=O)c1ccc(-c2ccc(N3C[C@H](Cn4ccnn4)OC3=O)cc2F)cn1 [Example 11]"
  experimental readout: "melting point"
  result: "81 °C"
- molecule: "Cc1nccn1CC(=O)c1ccc(-c2ccc(N3C[C@H](Cn4ccnn4)OC3=O)cc2F)cn1 (as salt: hydrochloride) [Example 4]"
  experimental readout: "melting point"
  result: "> 240 °C (dec.)"
- molecule: "Cc1cn(CC(=O)c2ccc(-c3ccc(N4C[C@H](Cn5ccnn5)OC4=O)cc3F)cn2)cn1 (as salt: hydrochloride) [Example 5]"
  experimental readout: "melting point"
  result: "> 217 °C (dec.)"

###

pKi: −log10 of the molar value.
pKi, MAO-A (Homo sapiens, UniProt P21397): measured values

- molecule: "CC(C)(C)O/N=C/c1ccc(-c2ccc(N3C[C@H](Cn4ccnn4)OC3=O)cc2F)cn1 [Example 3]"
  modifier sign: "="
  pKi: 5.19
- molecule: "O=C1O[C@@H](Cn2ccnn2)CN1c1ccc(-c2ccc(/C=N/O)nc2)c(F)c1 [Ref Example 3]"
  modifier sign: ">"
  pKi: 6.52
- molecule: "O=Cc1ccc(-c2ccc(N3C[C@H](Cn4ccnn4)OC3=O)cc2F)cn1 [Ref Example 2]"
  modifier sign: "="
  pKi: 6.15
- molecule: "CC(=O)c1ccc(-c2ccc(N3C[C@H](Cn4ccnn4)OC3=O)cc2F)cn1 [Ref Example 1]"
  modifier sign: "="
  pKi: 6.14
- molecule: "O=C(CCCN1CCOCC1)c1ccc(-c2ccc(N3C[C@H](Cn4ccnn4)OC3=O)cc2F)cn1 [Example 2]"
  modifier sign: "="
  pKi: 4.82

###

Experiment: physchem
Conditions: pH 7.4, aqueous buffer, thermodynamic from solid

- compound: "Cn1nnc(-c2ccc(-c3ccc(N4C[C@H](Cn5ccnn5)OC4=O)cc3F)cn2)n1 [Reference Example 5]"
  unit spec: "µM"
  modifier sign: "<"
  solubility thermodynamic: 7.1
- compound: "CC(=O)NC[C@H]1CN(c2ccc(-c3ccc(-c4nnn(C)n4)nc3)c(F)c2)C(=O)O1 [Reference Example 4]"
  unit spec: "µM"
  modifier sign: "="
  solubility thermodynamic: 35.1

###

Test: physchem
Conditions: pH 7.4, aqueous buffer, thermodynamic from solid
experimental readout: solubility (µM)

- compound: "O=C(Cn1ccnc1)c1ccc(-c2ccc(N3C[C@H](Cn4ccnn4)OC3=O)cc2F)cn1 [Example 1]"
  number: 1450

Values from patent US20080021012A1
